# TEST DESCRIPTION: Reversal of P-gp-mediated multidrug resistance in human KB/VCR cells assessed as potentiation of vincristine-induced antiproliferative activity by measuring vincristine IC50 at 2 uM measured after 72 hrs by CCK8 assay (Rvb = 0.51 uM)
# reported IC50; entries follow
Answer format: numeric, nM implied, no suffix.

Known IC50 results, listed for orientation:
COMPOUND STRUCTURE STRING	MEASURED NUMBER
CC(=O)O[C@H]1[C@@H]2[C@@H](OC(=O)c3cccnc3)[C@]3(OC2(C)C)[C@H](C)C[C@H](OC(C)=O)[C@@H](OC(C)=O)[C@@]3(C)[C@H]1OC(=O)c1ccccc1	64
CC(=O)O[C@@H]1[C@@H]2[C@@H](OC(C)=O)[C@]3(OC2(C)C)[C@H](C)C[C@@H](OC(C)=O)[C@H](OC(C)=O)[C@@]3(C)[C@@H]1OC(=O)c1ccccc1	150

Turning to the following compound.
In: Consider the compound CC(=O)O[C@H]1CC[C@@H](C)[C@]23OC(C)(C)[C@H](C[C@H](OC(=O)c4ccccc4)[C@]12C)[C@H]3OC(=O)c1ccccc1 and give its recorded IC50.
Out: 100
